Listed next: entries and their corresponding protein stability index.
B1: FEM1A (parent)
chain: PCCSSSPEEPLNGESYESCCPTSR

Variants of: B1
Assay: protein stability index of a GFP-peptide fusion (GPS, HEK-293T) (PSI 1-6); higher = more stable;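 further: lentivirally expressed fusions sorted by FACS into six bins by GFP to DsRed ratio, PSI derived from sequencing read proportions per bin multiplied by bin number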
Settings: c terminus: a fixed tail appended
measurementKind: protein stability index

variantidentifier=P10L measurementkind="protein stability index" number=3.41
variantidentifier=S18A measurementkind="protein stability index" number=4.71
variantidentifier=S4Q measurementkind="protein stability index" number=3.67
variantidentifier=P7V measurementkind="protein stability index" number=4.45
variantidentifier=S5P measurementkind="protein stability index" number=3.49
variantidentifier=S4W measurementkind="protein stability index" number=3.85
variantidentifier=C20M measurementkind="protein stability index" number=3.18
variantidentifier=R24S measurementkind="protein stability index" number=5.27
variantidentifier=Y16V measurementkind="protein stability index" number=4.35
variantidentifier=R24N measurementkind="protein stability index" number=4.96
variantidentifier=N12A measurementkind="protein stability index" number=3.71
variantidentifier=E8G measurementkind="protein stability index" number=3.06
variantidentifier=S5H measurementkind="protein stability index" number=4.12
variantidentifier=E9M measurementkind="protein stability index" number=2.69
variantidentifier=S6W measurementkind="protein stability index" number=3.27
variantidentifier=S23A measurementkind="protein stability index" number=4.35
variantidentifier=G13S measurementkind="protein stability index" number=3.75
variantidentifier=L11C measurementkind="protein stability index" number=3.54
variantidentifier=Y16L measurementkind="protein stability index" number=3.84
variantidentifier=P7Y measurementkind="protein stability index" number=3.02
variantidentifier=Y16T measurementkind="protein stability index" number=4.37
variantidentifier=G13C measurementkind="protein stability index" number=3.54
variantidentifier=S18C measurementkind="protein stability index" number=4.24
variantidentifier=P7W measurementkind="protein stability index" number=2.44
variantidentifier=T22E measurementkind="protein stability index" number=4.53
variantidentifier=S15Y measurementkind="protein stability index" number=3.17
variantidentifier=E9C measurementkind="protein stability index" number=3.21
variantidentifier=S5V measurementkind="protein stability index" number=4.45
variantidentifier=P10Y measurementkind="protein stability index" number=3.14
variantidentifier=S23Y measurementkind="protein stability index" number=3.09
variantidentifier=P21A measurementkind="protein stability index" number=3.68
variantidentifier=E9T measurementkind="protein stability index" number=3.34
variantidentifier=E8Y measurementkind="protein stability index" number=2.65

Sourced from the supplement of paper PMC10567573
